FYI, the data here is from the NIST ThermoML archive (doi:10.1021/je201310d).

# activity coefficient values compiled below
assay: activity coefficient (dimensionless); of the first substance listed, at infinite dilution; xn = mol fraction of the nth substance listed; details: 333.15 K; 101 kPa; Liquid; Chromatography; x1 = 0

# example entries with known answers
Cc1ccccc1 [toluene] + CCCCOP(=O)([O-])OCCCC.CCCCn1cc[n+](C)c1 = 1.32
CCCCCCCCC [nonane] + CCCCOP(=O)([O-])OCCCC.CCCCn1cc[n+](C)c1 = 7.31
C=Cc1ccccc1 [styrene] + CCCCOP(=O)([O-])OCCCC.CCCCn1cc[n+](C)c1 = 1.09
CCCCCC [hexane] + CCCCOP(=O)([O-])OCCCC.CCCCn1cc[n+](C)c1 = 4.51
CCCCCCCCCC [decane] + CCCCOP(=O)([O-])OCCCC.CCCCn1cc[n+](C)c1 = 9.16

Query compound follows.
# get_value(readout='activity coefficient', item= CCCCCCCC [octane] + CCCCOP(=O)([O-])OCCCC.CCCCn1cc[n+](C)c1 )
6.36
